Where do these numbers come from? They come from patent EP0183271B1.

Target: Plasmin (Homo sapiens, UniProt P00747)
Sequence (P00747 581-810 limits assumed): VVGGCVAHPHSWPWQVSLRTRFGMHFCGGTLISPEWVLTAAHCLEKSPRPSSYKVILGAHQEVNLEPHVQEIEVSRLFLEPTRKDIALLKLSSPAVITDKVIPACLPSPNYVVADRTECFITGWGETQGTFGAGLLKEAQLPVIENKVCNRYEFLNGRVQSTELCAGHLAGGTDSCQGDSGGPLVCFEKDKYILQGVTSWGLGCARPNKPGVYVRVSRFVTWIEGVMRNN
Sequence (P00747 97-580 partner limits assumed): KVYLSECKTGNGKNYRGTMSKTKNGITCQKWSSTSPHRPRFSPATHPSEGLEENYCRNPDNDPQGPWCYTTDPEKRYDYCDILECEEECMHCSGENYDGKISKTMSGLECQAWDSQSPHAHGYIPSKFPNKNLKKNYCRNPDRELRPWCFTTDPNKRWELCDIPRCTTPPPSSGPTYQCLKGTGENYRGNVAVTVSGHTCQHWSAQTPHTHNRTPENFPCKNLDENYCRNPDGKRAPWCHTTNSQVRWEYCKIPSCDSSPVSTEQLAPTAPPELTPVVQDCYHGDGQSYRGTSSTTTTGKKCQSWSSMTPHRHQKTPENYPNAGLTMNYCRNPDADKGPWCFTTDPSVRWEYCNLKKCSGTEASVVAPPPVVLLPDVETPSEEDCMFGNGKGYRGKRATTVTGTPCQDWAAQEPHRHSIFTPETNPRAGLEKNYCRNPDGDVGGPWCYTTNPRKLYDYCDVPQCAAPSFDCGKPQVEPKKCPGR
Assay: biochemical
Conditions: Table III, known compounds of Table II; substrate S-2251; *1: 0% Inhibition at the given concentration; read-out: I50 Plasmin S-2251
Where a name gives a salt, the structure may show the parent alone.
# IC50 annotations
measurement_label: IC50 (µM)

[
  {
    "molecule": "NCCCC[C@H](NC(=O)c1ccccc1)C(N)=O",
    "unit_label": "µM",
    "cmp": ">",
    "val": 1000
  },
  {
    "molecule": "NCCCCCC(=O)N[C@@H](CCCCN)C(=O)O",
    "unit_label": "µM",
    "cmp": ">",
    "val": 1000
  },
  {
    "molecule": "NCCCC[C@H](NS(=O)(=O)c1ccccc1)C(N)=O",
    "unit_label": "µM",
    "cmp": ">",
    "val": 1000
  },
  {
    "molecule": "Cc1ccc(S(=O)(=O)N[C@@H](CCCCN)C(=O)O)cc1",
    "unit_label": "µM",
    "cmp": "=",
    "val": 1400
  },
  {
    "molecule": "Cc1ccc(S(=O)(=O)N[C@@H](CCCCN)C(=O)Nc2ccc([N+](=O)[O-])cc2)cc1 [Compound No. 3, hydrochloride]",
    "unit_label": "µM",
    "cmp": "=",
    "val": 50000
  }
]
